- ASSAY_TARGET: T1, human Plexin B1 (human, UniProt O43157 20-535, limits assumed)
- T1 sequence (looked up): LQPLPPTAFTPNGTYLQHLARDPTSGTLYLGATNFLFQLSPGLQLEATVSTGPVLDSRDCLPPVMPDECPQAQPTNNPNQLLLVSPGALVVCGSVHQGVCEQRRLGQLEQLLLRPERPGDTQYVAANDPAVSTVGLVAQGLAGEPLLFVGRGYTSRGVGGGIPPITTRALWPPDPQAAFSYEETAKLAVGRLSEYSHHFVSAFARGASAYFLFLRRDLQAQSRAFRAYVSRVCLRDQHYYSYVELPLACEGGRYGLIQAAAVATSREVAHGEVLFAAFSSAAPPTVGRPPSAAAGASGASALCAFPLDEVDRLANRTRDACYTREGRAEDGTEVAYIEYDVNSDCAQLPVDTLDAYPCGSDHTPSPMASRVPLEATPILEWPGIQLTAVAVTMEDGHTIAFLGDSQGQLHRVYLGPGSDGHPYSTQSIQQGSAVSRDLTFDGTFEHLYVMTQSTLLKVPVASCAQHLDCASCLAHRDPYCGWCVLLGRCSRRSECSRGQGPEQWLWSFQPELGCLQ
- TEST_DETAILS: SPR
Positions of bridges follow the written chain, without caps; N, C: chain ends. Non-standard residues stand in square brackets, D forms with d. No end group written: not given here.
Item-by-item account of Kd
MEASUREMENT_TYPE: Kd (nM)

{"columns": ["BINDER", "UNIT_DESCRIPTOR", "MEASURED_NUMBER"],
 "data": [
  ["{CH2CO}-[dW]RPRAARWTGQIIYCS (thioether N-15) [SEQ ID NO 37]", "nM", 77.1],
  ["{CH2CO}-[dW]AVSNLPPRPHITYIECS (thioether N-17) [SEQ ID NO 40]", "nM", 700],
  ["{CH2CO}-[dW]RVRVERWTGKLICS (thioether N-14) [SEQ ID NO 31]", "nM", 33.7]
]}
